Value source: the supplement of paper PMC8387472

# System: mESC LDLR-Dup GFP reporter (SpCas9 MH-deletion repair)
# experimentalDetails: fraction of GFP+ cells relative to DMSO control (fold change); higher = more MH-deletion repair to in-frame LDLR (or more editing)
# experimentalConditions: 2 µM; 7 days post-transfection
Counter-ions that a name gives are not always drawn.
measure: fraction of GFP+ cells
// response body must contain only the number

Some entries whose results are on file:
>  <compound>
CCN1CCN(Cc2ccc(Nc3ncc(F)c(-c4cc(F)c5nc(C)n(C(C)C)c5c4)n3)nc2)CC1

>  <measure>
fraction of GFP+ cells

>  <recordedNumber>
0.684

$$$$
>  <compound>
O=C1Cc2c([nH]c3ccc(Br)cc23)-c2ccccc2N1 [Kenpaullone]

>  <measure>
fraction of GFP+ cells

>  <recordedNumber>
1.53

$$$$
>  <compound>
CCN1C(=O)CNc2ncc(-c3ccc(-c4nc[nH]n4)nc3C)nc21

>  <measure>
fraction of GFP+ cells

>  <recordedNumber>
0.696

$$$$
>  <compound>
CCCC(CCC)C(=O)O [Divalproex Sodium]

>  <measure>
fraction of GFP+ cells

>  <recordedNumber>
0.742

$$$$
>  <compound>
CC(C)(O)[C@@H]1CC[C@](C)([C@H]2[C@@H](O)C[C@@]3(C)[C@@H]4C[C@H](O)[C@H]5C(C)(C)[C@@H](O)CC[C@@]56C[C@@]46CC[C@]23C)O1 [Cycloastragenol]

>  <measure>
fraction of GFP+ cells

>  <recordedNumber>
0.966

$$$$

Now consider a different compound.
Value of fraction of GFP+ cells reported for the compound NCCOc1cc(C(=O)Nc2cc(OCCN)c3ccccc3n2)nc(C(=O)Nc2cc(OCCN)c3ccccc3n2)c1 [Pyridostatin Trifluoroacetate Salt] is 0.824

----------
# Tested on: 6.0 (DMSO control at this site: 1-bp insertion 0.296, MH deletion 0.491, edited 0.076) ACGATTGGCCCCCACAAAGCGGACCAGCCAGCGTGCTAGGGAATAAGGCCAACTTGCACCC
# experimentalDetails: fraction of microhomology deletions among edited reads; higher = more MH deletions
# experimentalConditions: mESC; 2uM; 72 h treatment, harvest day 5
fraction of microhomology deletions among edited reads: recorded values
// response body must contain only the number

>  <compound>
CCn1c(=O)c(-c2ccc(Cl)cc2Cl)cc2cnc(Nc3ccc(N4CCNCC4)c(F)c3)nc21

>  <recordedNumber>
0.477

$$$$

Value of fraction of microhomology deletions among edited reads reported for the compound `O=C(c1cccc(Cl)c1F)N1CCN(Cc2cccc(Nc3nccs3)n2)CC1` is 0.559

Value of fraction of microhomology deletions among edited reads reported for the compound `O=c1c(-c2ccc(O)cc2)coc2cc(O)cc(O)c12` is 0.529

Value of fraction of microhomology deletions among edited reads reported for the compound Nc1cc(F)ccc1NC(=O)c1ccc(CNC(=O)/C=C/c2cccnc2)cc1 [Tucidinostat (Chidamide)] is 0.502

Value of fraction of microhomology deletions among edited reads reported for the compound `CCN1CCN(CC(=O)Nc2ccc(-c3cccc4c(=O)cc(N5CCOCC5)oc34)c3sc4ccccc4c23)CC1` is 0.588

Value of fraction of microhomology deletions among edited reads reported for the compound `COc1ccccc1-c1cc(Nc2cccc(CS(N)(=O)=O)c2)ncn1` is 0.494

----------
fraction of GFP+ cells: recorded values
# Test system: mESC LDLR-Dup GFP reporter (SpCas9 MH-deletion repair)
# experimentalDetails: fraction of GFP+ cells relative to DMSO control (fold change); higher = more MH-deletion repair to in-frame LDLR (or more editing)
# experimentalConditions: 2 µM; 7 days post-transfection
// response body must contain only the number

Some entries whose results are on file:
>  <compound>
C[C@H](CN(C)C)Oc1nc(Nc2cc3cccc(Cl)c3cn2)cnc1C#N

>  <measure>
fraction of GFP+ cells

>  <recordedNumber>
1.28

$$$$
>  <compound>
CCCCCCCCCCCCCC(=S)NCCCC[C@H](NC(=O)OCc1ccccc1)C(=O)Nc1ccccc1

>  <measure>
fraction of GFP+ cells

>  <recordedNumber>
0.948

$$$$
>  <compound>
O=P(O)(O)C(O)(Cn1ccnc1)P(=O)(O)O [Zoledronic Acid Monohydrate]

>  <measure>
fraction of GFP+ cells

>  <recordedNumber>
1.07

$$$$
>  <compound>
O=C(O)c1cn(C2CC2)c2cc(N3CCNCC3)c(F)cc2c1=O

>  <measure>
fraction of GFP+ cells

>  <recordedNumber>
1.01

$$$$

Now consider a different compound.
Value of fraction of GFP+ cells reported for the compound `N=C1NC(=O)/C(=C/c2ccc(O)cc2)S1` is 0.862

----------
# Test system: mESC LDLR-Dup GFP reporter (SpCas9 MH-deletion repair)
# experimentalDetails: fraction of GFP+ cells relative to DMSO control (fold change); higher = more MH-deletion repair to in-frame LDLR (or more editing)
# experimentalConditions: 2 µM; 7 days post-transfection
Label yes (1) when fraction of GFP+ cells >= 1; otherwise no (0).

Would you please look over these solved cases?
>  <compound>
CN(C)c1nc(N(C)C)nc(N(C)C)n1 [Altretamine]

>  <classification>
yes (1)

$$$$
>  <compound>
CN(CCOc1ccc(CC2SC(=O)NC2=O)cc1)c1ccccn1 (stereo unspecified) [Rosiglitazone]

>  <classification>
yes (1)

$$$$
>  <compound>
CCOC(=O)NCCCC(=O)NCCc1ccccc1

>  <classification>
no (0)

$$$$
>  <compound>
CC(NC(=O)c1ccccc1/N=C/c1c(O)ccc2ccccc12)c1ccccc1 (stereo unspecified) [Sirtinol]

>  <classification>
yes (1)

$$$$
>  <compound>
O=NN(CCCl)C(=O)NC1CCCCC1 [Lomustine]

>  <classification>
yes (1)

$$$$

Inquiry: Quick check: does `Cn1c(=O)cc(C(=O)Nc2ccc3c(c2)OCCO3)c2ccccc21` have fraction of GFP+ cells greater than or equal to 1?
Reply text: no (0)

----------
# Tested on: 6.0 (DMSO control at this site: 1-bp insertion 0.296, MH deletion 0.491, edited 0.076) ACGATTGGCCCCCACAAAGCGGACCAGCCAGCGTGCTAGGGAATAAGGCCAACTTGCACCC
# experimentalDetails: fraction of 1-bp insertions among edited reads; higher = more 1-bp insertion outcomes
# experimentalConditions: mESC; 2uM; 72 h treatment, harvest day 5
Where a name gives a salt, the structure may show the parent alone.
Label met when fraction of 1-bp insertions among edited reads >= 0.3; otherwise not met.

>  <molecule>
O=c1c(-c2ccc(O)cc2)coc2cc(O)cc(O)c12 [Genistein]

>  <classification>
not met

$$$$
>  <molecule>
C[C@@H]1CN(CC(=O)Nc2ccc3c(c2)Cc2cccc(-c4cc(=O)cc(N5CCOCC5)o4)c2S3)C[C@H](C)O1

>  <classification>
met

$$$$
>  <molecule>
Nc1nc2[nH]cc(CCc3ccc(C(=O)N[C@@H](CCC(=O)O)C(=O)O)cc3)c2c(=O)[nH]1 [Pemetrexed]

>  <classification>
not met

$$$$
>  <molecule>
S=c1[nH]cnc2nc[nH]c12 [Mercaptopurine (6-MP)]

>  <classification>
not met

$$$$
>  <molecule>
S=c1nc[nH]c2nc[nH]c12 [6-Mercaptopurine (6-MP) Monohydrate]

>  <classification>
met

$$$$
>  <molecule>
CC(=O)O/N=C1\C(=O)N(Cc2cc(Cl)ccc2Cl)c2ccc(Cl)cc21

>  <classification>
not met

$$$$
>  <molecule>
CCc1c2c(nc3ccc(OC(=O)N4CCC(N5CCCCC5)CC4)cc13)-c1cc3c(c(=O)n1C2)COC(=O)[C@]3(O)CC [Irinotecan HCl Trihydrate]

>  <classification>
not met

$$$$
>  <molecule>
Nc1cc(F)ccc1NC(=O)c1ccc(CNC(=O)/C=C/c2cccnc2)cc1 [Tucidinostat (Chidamide)]

>  <classification>
not met

$$$$

// next entry
Inquiry: Quick check: does `COc1ccccc1-c1cc(Nc2cccc(CS(N)(=O)=O)c2)ncn1` have fraction of 1-bp insertions among edited reads greater than or equal to 0.3?
Reply text: not met

----------
fraction of GFP+ cells: recorded values
# Test system: mESC LDLR-Dup GFP reporter (SpCas9 MH-deletion repair)
# experimentalDetails: fraction of GFP+ cells relative to DMSO control (fold change); higher = more MH-deletion repair to in-frame LDLR (or more editing)
# experimentalConditions: 2 µM; 7 days post-transfection
// response body must contain only the number

Some entries whose results are on file:
>  <substanceSmiles>
Cn1cc(-c2cnn3c(N)c(Br)c([C@@H]4CCCNC4)nc23)cn1

>  <studySystem>
mESC LDLR-Dup GFP reporter (SpCas9 MH-deletion repair)

>  <recordedNumber>
0.689

$$$$
>  <substanceSmiles>
CS(=O)(=O)c1ccc(-c2nnc(/C=C/c3nnc(-c4ccc(C#N)cc4)o3)n2-c2ccccc2Cl)nc1

>  <studySystem>
mESC LDLR-Dup GFP reporter (SpCas9 MH-deletion repair)

>  <recordedNumber>
0.816

$$$$
>  <substanceSmiles>
Cc1nc2c(O)cccc2c(=O)[nH]1

>  <studySystem>
mESC LDLR-Dup GFP reporter (SpCas9 MH-deletion repair)

>  <recordedNumber>
0.926

$$$$
>  <substanceSmiles>
Nc1ccn(C[C@@H](CO)OCP(=O)(O)O)c(=O)n1

>  <studySystem>
mESC LDLR-Dup GFP reporter (SpCas9 MH-deletion repair)

>  <recordedNumber>
1.02

$$$$

Value of fraction of GFP+ cells reported for the molecule `CN(C)/N=N/c1[nH]cnc1C(N)=O` is 1.01
